Overview of recorded pKd for various binders
assayed-system: T1, human mature TGFβ3 (Homo sapiens, UniProt P10600)
T1 construct: Transforming Growth Factor-beta 3, human, mature form (cut from the precursor); also called TGFb3; source: bought: PeproTech
T1 sequence (P10600 301-412): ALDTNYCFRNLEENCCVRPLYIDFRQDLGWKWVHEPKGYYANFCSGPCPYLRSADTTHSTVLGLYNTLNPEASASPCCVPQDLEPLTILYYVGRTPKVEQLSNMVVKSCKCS
assay-method-text: SPR; Biacore T200; antibody captured on a Protein A sensor chip (about 90 RU); mature TGFβ isoform injected, five-fold dilutions 0.008 nM to 5 nM; HBS-EP pH 7.4, 150 mM NaCl; 37 °C; 100 μl/min; 3 min association, 60 min dissociation; one-to-one Langmuir model, global fit
study-conditions: both partners purified
Scale: pKd equals -log10([C]), with [C] in mol/L.

# annotated cases, reported pKd shown
# binder, reported-property, measurement
rows = [
    ("h4A11.v7.6 (antibody, V domains shown, as the VH of m12 (h4A11.v7); numbers count on: Kabat numbering of the heavy chain; as the VL of m12 (h4A11.v7); human IgG1; also called v7.6_S19R, S79W, K81R; source: Expi293F, transient, purified (Protein A, SEC)) VH: EQQLQESGPGLVKPSETLRLTCTVTGFSLSSYTVNWVRQPAGKGLEWIGYISYGGSAYYASWANGRFTISKDSSKNQVWLRLSSVTAADTAVYFCARHMQVGGAPTGSMAAFDPWGPGTLVTVSS VL: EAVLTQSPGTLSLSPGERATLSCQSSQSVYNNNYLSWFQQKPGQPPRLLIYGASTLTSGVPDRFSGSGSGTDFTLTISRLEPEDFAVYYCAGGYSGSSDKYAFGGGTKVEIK", "pKd", 10.81),
    ("h4A11.v2.4 (antibody, V domains shown, as the VH of m7 (h4A11.v2) with the stated changes; numbers count on: Kabat numbering of the heavy chain; as the VL of m7 (h4A11.v2); human IgG1; also called v2.4_ R19S, Y79S; source: Expi293F, transient, purified (Protein A, SEC)) VH: EQQLVESGGGLVQPGGSLSLSCAVSGFSLSSYTVNWVRQAPGKGLEWIGYISYGGSAYYASWANGRFTISKDSAKNSVSLQMNSLRAEDTAVYFCARHMQVGGAPTGSMAAFDPWGPGTLVTVSS VL: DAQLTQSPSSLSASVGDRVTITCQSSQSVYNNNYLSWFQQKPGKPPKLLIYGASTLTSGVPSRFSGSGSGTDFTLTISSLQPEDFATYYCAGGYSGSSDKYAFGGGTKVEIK", "pKd", 12.22),
    ("h4A11.v2.5 (antibody, V domains shown, as the VH of m7 (h4A11.v2) with the stated changes; numbers count on: Kabat numbering of the heavy chain; as the VL of m7 (h4A11.v2); human IgG1; also called v2.5_ R19S, Q81S; source: Expi293F, transient, purified (Protein A, SEC)) VH: EQQLVESGGGLVQPGGSLSLSCAVSGFSLSSYTVNWVRQAPGKGLEWIGYISYGGSAYYASWANGRFTISKDSAKNSVYLSMNSLRAEDTAVYFCARHMQVGGAPTGSMAAFDPWGPGTLVTVSS VL: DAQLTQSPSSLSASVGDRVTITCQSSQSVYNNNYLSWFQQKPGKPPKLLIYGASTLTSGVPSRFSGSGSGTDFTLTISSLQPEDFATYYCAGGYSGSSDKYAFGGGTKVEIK", "pKd", 12.22),
]

Proceeding to the next binder to report its pKd.
Requested field: pKd. Item: h4A11.v2.6 (antibody, V domains shown, as the VH of m7 (h4A11.v2) with the stated changes; numbers count on: Kabat numbering of the heavy chain; as the VL of m7 (h4A11.v2); human IgG1; also called v2.6_ R19S, Y79S, Q81S; source: Expi293F, transient, purified (Protein A, SEC)) VH: EQQLVESGGGLVQPGGSLSLSCAVSGFSLSSYTVNWVRQAPGKGLEWIGYISYGGSAYYASWANGRFTISKDSAKNSVSLSMNSLRAEDTAVYFCARHMQVGGAPTGSMAAFDPWGPGTLVTVSS VL: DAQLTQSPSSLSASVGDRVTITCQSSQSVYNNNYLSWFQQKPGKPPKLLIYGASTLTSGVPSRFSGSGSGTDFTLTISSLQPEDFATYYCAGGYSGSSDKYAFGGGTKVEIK
12.30
